# Target entity: UniProt P35414
# Experimental protocol: potency against CXCR6 with APJ panel – cell-based, beta-arrestin, DiscoveRx, uHTS hits, dose response (AID 624129)
# Assay conditions: CXCR6 beta-arrestin (DiscoveRx) antagonist cell assay, APJ, dose range 1, mean IC50 across replicates
Property measured: log10 of IC50 (log10 of the value in µM)
Values below are the log10 of the recorded IC50, with µM as the unit.

Using the record for C=C1C(=O)OC2C1CCC(C)=C1C(=O)C3OC3(C)C12 (stereo unspecified) , state its measured log10 of IC50. 1.04

Indicate its recorded log10 of IC50; the molecule in question is O=C(N/N=C(\c1ccccc1)c1cccnc1)c1cccc(F)c1 0.65

For the molecule Oc1c(I)cc(Cl)c2cccnc12 , report log10 of IC50. 1.27

For the molecule COc1ccccc1C(=O)NNC(=S)NC(=O)c1cccs1 , give its measured log10 of IC50 value. 1.49

In one line, give reported log10 of IC50 of the entry O=C(Nc1ccccc1Cl)/C(Cl)=C(\Cl)S(=O)c1ccccc1 (stereo unspecified) . 1.07

Provide measured log10 of IC50 value, entry: COc1ccc([N+](=O)[O-])c(S(=O)(=O)c2ccccc2)n1 1.36

Identify log10 of IC50 associated with the molecule COC(=O)c1ccc2c(c1)C(C)(C)C(/C=C/c1ccccc1O)=[N+]2C 1.20

Answer with the recorded log10 of IC50 of CN(CCO)c1cc(Sc2nc3ccccc3s2)c2nonc2c1[N+](=O)[O-] only. 0.94

Given the molecule COc1cc2c(cc1OC)C1(CCCC1)CNC2c1cccc([N+](=O)[O-])c1 (stereo unspecified) , write its reported log10 of IC50. 1.34

Note log10 of IC50 for the molecule shown: C=CS(=O)(=O)c1c2cc(OC)ccc2nc2ccc(OC)cc12 1.27

Identify log10 of IC50 associated with the molecule CC(=NNc1nc2ccccc2s1)c1ncccn1 1.24

Give log10 of IC50 for Cn1c(O)c(C2=NNC(c3ccc(Cl)cc3)C2)c(=O)n(C)c1=O (stereo unspecified) 1.12

Determine from records and report log10 of IC50 for S=C(N/N=C/c1ccccc1)N1CCOCC1 0.85

Determine its reported log10 of IC50: CC(C)(C)C(=O)NC(=S)NNC(=O)c1sc2ccccc2c1Cl 1.26

Return the recorded log10 of IC50 value; entry: COc1cc(/C=C/c2ccc3cccc(O)c3n2)ccc1O 1.28

Give a short answer stating reported log10 of IC50 for Cc1ccsc1/C=C/c1ccc2cccc(O)c2n1 . 0.89

Answer with reported log10 of IC50 of O=C1c2ccccc2C(=O)N1OS(=O)(=O)c1ccc(F)cc1 1.34

Name the recorded log10 of IC50 of the molecule listed here: C=C1C(=O)c2sccc2C(c2ccc(OC)c(OC)c2)C1COC(C)=O (stereo unspecified) 0.83

For the molecule N#Cc1c(C#N)c(SSc2c(C#N)c(C#N)c(N)n2-c2ccccc2)n(-c2ccccc2)c1N , give its measured log10 of IC50 value. 0.33

Specify reported log10 of IC50 for the molecule shown: Cc1nnc(Sc2cc(NCCCO)c([N+](=O)[O-])c3nonc23)s1 1.06

Output log10 of IC50 of Cc1ccc(NC(=S)N/N=C/c2ccc([N+](=O)[O-])s2)cc1 1.28

State its log10 of IC50 for this molecule: CCN1/C(=C\C=C2\C(=O)N(c3ccccc3)C(=S)N2C)Sc2ccccc21 1.05

Identify log10 of IC50 associated with the molecule CCC(=O)OCCNc1cc(Sc2nccn2C)c2nonc2c1[N+](=O)[O-] 0.78

Let me know recorded log10 of IC50 for O=[N+]([O-])c1c(Nc2cccc(O)c2)cc(Cl)c2nonc12 , thanks. 1.28

Read off the recorded log10 of IC50 for N#CC(C#N)=C1C=CC=CN1/C(=C\c1ccccc1Cl)C(=O)c1ccccc1 1.16

Find the measured log10 of IC50 of O=C(C#Cc1ccccc1)c1ccco1 and report it. 1.15

Fill in reported log10 of IC50 for this entry: Cc1cccc(CSc2cccc3cccnc23)c1 0.60
